Provenance of the data: paper PMC11699130

Tested on: MCF7 (breast) carcinoma cell line
Assay: MTT antiproliferation assay, MCF7
Format: cell-based
Details: Homo sapiens; MTT, 72 h incubation, MCF7 (breast); read-out: IC50, μM ± SD, MCF7
Readout Name: IC50 (µM)

Solved entries:
>  <Compound>
O=C(Nc1ccccc1)Nc1cccc(C(=O)/C=C2/C(=O)Nc3ccc(Cl)cc32)c1 [Compound 12e]

>  <Unit Abbrev>
µM

>  <Measured Number>
3.91

$$$$
>  <Compound>
O=C(Nc1ccccc1)Nc1ccc(C(=O)/C=C2/C(=O)Nc3ccc(Cl)cc32)cc1 [Compound 12f]

>  <Unit Abbrev>
µM

>  <Measured Number>
3.41

$$$$
>  <Compound>
Cc1ccc2c(c1)/C(=C\C(=O)c1ccc(NC(=O)Nc3ccccc3)cc1)C(=O)N2 [Compound 12h]

>  <Unit Abbrev>
µM

>  <Measured Number>
2.07

$$$$
>  <Compound>
O=C(Nc1ccccc1)Nc1ccc(C(=O)/C=C2/C(=O)Nc3ccccc32)cc1 [Compound 12b]

>  <Unit Abbrev>
µM

>  <Measured Number>
2.08

$$$$
>  <Compound>
O=C(Nc1ccccc1)Nc1ccc(C(=O)/C=C2/C(=O)Nc3ccc(Br)cc32)cc1 [Compound 12g]

>  <Unit Abbrev>
µM

>  <Measured Number>
4.41

$$$$

[P] O=C(Nc1ccccc1)Nc1cccc(C(=O)/C=C2/C(=O)Nc3ccccc32)c1 [Compound 12a]
[Q] CCN(CC)CCNC(=O)c1c(C)[nH]c(/C=C2\C(=O)Nc3ccc(F)cc32)c1C [Sunitinib, reference compound]
[R] COc1ccc2c(c1)/C(=C\C(=O)c1ccc(NC(=O)Nc3ccccc3)cc1)C(=O)N2 [Compound 12j]
[S] O=C(Nc1ccccc1)Nc1cccc(C(=O)/C=C2/C(=O)Nc3ccc(F)cc32)c1 [Compound 12c]
Falling order of IC50, please. Kindly provide the labels arranged according to the requested ordering.
Q, S, P, R
(Q: 11.8 µM, S: 5.81 µM, P: 3.13 µM, R: 1.69 µM)

[a] O=C(Nc1ccccc1)Nc1ccc(C(=O)/C=C2/C(=O)Nc3ccc(F)cc32)cc1 [Compound 12d]
[b] COc1ccc2c(c1)/C(=C\C(=O)c1cccc(NC(=O)Nc3ccccc3)c1)C(=O)N2 [Compound 12i]
Given the listed items, does a or b have the lesser reported IC50? Output the label that corresponds to your choice.
a
(a: 2.9 µM, b: 8.96 µM)

---

System: RPE1 (human immortalized retinal pigment epithelial) cell line
Assay: MTT assay on normal cells for safety/selectivity
Type: cell-based
Settings: RPE-1, read-out: IC50, μM ± SD, RPE1
Reported values of IC50 for individual entries
State the answer as a number, implicitly in µM.

Solved entries:
>  <Compound>
O=C(Nc1ccccc1)Nc1ccc(C(=O)/C=C2/C(=O)Nc3ccc(Br)cc32)cc1 [Compound 12g]

>  <Unit Abbrev>
µM

>  <Measured Number>
13.7

$$$$
>  <Compound>
O=C(Nc1ccccc1)Nc1cccc(C(=O)/C=C2/C(=O)Nc3ccccc32)c1 [Compound 12a]

>  <Unit Abbrev>
µM

>  <Measured Number>
13.6

$$$$
>  <Compound>
O=C(Nc1ccccc1)Nc1ccc(C(=O)/C=C2/C(=O)Nc3ccc(F)cc32)cc1 [Compound 12d]

>  <Unit Abbrev>
µM

>  <Measured Number>
11

$$$$
>  <Compound>
COc1ccc2c(c1)/C(=C\C(=O)c1ccc(NC(=O)Nc3ccccc3)cc1)C(=O)N2 [Compound 12j]

>  <Unit Abbrev>
µM

>  <Measured Number>
8.6

$$$$
>  <Compound>
O=C(Nc1ccccc1)Nc1ccc(C(=O)/C=C2/C(=O)Nc3ccc(Cl)cc32)cc1 [Compound 12f]

>  <Unit Abbrev>
µM

>  <Measured Number>
10.7

$$$$

Data point: O=C(Nc1ccccc1)Nc1cccc(C(=O)/C=C2/C(=O)Nc3ccc(F)cc32)c1 [Compound 12c] ; IC50 = 21.3

Data point: O=C(Nc1ccccc1)Nc1cccc(C(=O)/C=C2/C(=O)Nc3ccc(Cl)cc32)c1 [Compound 12e] ; IC50 = 14.6

Data point: O=C(Nc1ccccc1)Nc1ccc(C(=O)/C=C2/C(=O)Nc3ccccc32)cc1 [Compound 12b] ; IC50 = 8.36

Data point: COc1ccc2c(c1)/C(=C\C(=O)c1cccc(NC(=O)Nc3ccccc3)c1)C(=O)N2 [Compound 12i] ; IC50 = 30.2

Data point: Cc1ccc2c(c1)/C(=C\C(=O)c1ccc(NC(=O)Nc3ccccc3)cc1)C(=O)N2 [Compound 12h] ; IC50 = 8.5
